Hey, just so you know, these numbers are from patent US20240148821A1.

Target: protein-protein interaction between Kras and SOS1 (biotin-tagged human Kras loaded with GDP, His-tagged human SOS1) (Homo sapiens (Human), UniProt P01116, G12D)
Experiment: Protein-protein interaction inhibition between Kras and SOS1 (KrasG12D-SOS PPI) using AlphaScreen;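 also: kras produced in E. coli, Ni-coupled donor beads and streptavidin acceptor beads, excitation 680 nm with emission detected at 520–620 nm via singlet oxygen transfer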
Format: biochemical
Conditions: AlphaScreen; biotin-tagged human Kras loaded with GDP, His-tagged human SOS1; read-out: KRAS G12D-SOS PPI IC50
Numbered stars: 1 amine (or outer) side, 2 acyl side, 3 side chain; on linkers, the order of the positions; unused ones are H or OH. Bridge positions count the residues as written; N and C are the ends. Square brackets hold non-standard residues; d marks the D form. Peptide text beside a SMILES is read from it. * marks the point of attachment. hPhe(3,5-F2-4-CF3) = N[C@@H](CCc1cc(F)c(C(F)(F)F)c(F)c1)C(=O)O; hPhe(3-Cl-4-CF3) = N[C@@H](CCc1ccc(C(F)(F)F)c(Cl)c1)C(=O)O; NEtPhe(4-CF3) = CCN[C@@H](Cc1ccc(C(F)(F)F)cc1)C(=O)O; hPhe(4-CF3) = N[C@@H](CCc1ccc(C(F)(F)F)cc1)C(=O)O; NMePhe(4-Cl) = CN[C@@H](Cc1ccc(Cl)cc1)C(=O)O; NMePhe(4-Me) = CN[C@@H](Cc1ccc(C)cc1)C(=O)O; NMedβ3hAla = C[C@H](CC(=O)[*:2])N(C)[*:1]; Pro(4,4-F2) = O=C(O)[C@@H]1CC(F)(F)CN1; NMeCha = CN[C@@H](CC1CCCCC1)C(=O)O; NMeChg = CN[C@H](C(=O)O)C1CCCCC1; NMeI = CC[C@H](C)[C@H](NC)C(=O)O; NMeT = CN[C@H](C(=O)O)[C@@H](C)O; NMeD = CN[C@@H](CC(=O)O)C(=O)O; NMeL = CN[C@@H](CC(C)C)C(=O)O; d(β3hA) = C[C@@H](N)CC(=O)O; NMeS = CN[C@@H](CO)C(=O)O; NMeA = CN[C@@H](C)C(=O)O; Piperidide = C1CCN(*)CC1; Ac5c = NC1(C(=O)O)CCCC1; Aze = O=C(O)[C@@H]1CCN1; Ac4c = NC1(C(=O)O)CCC1; CH2CMe2OH = CC(C)(O)C*; NBuGly = CCCCNCC(=O)O; Aib = CC(C)(N)C(=O)O; Isopentyl = CC(C)CC*; NEtG = CCNCC(=O)O; Sar = CNCC(=O)O
IC50 values for the compounds below.
Quick reminder: number only, in nM, skip the unit.

Some compounds with recorded IC50:
>  <compound>
CC[C@H](C)[C@@H]1NC(=O)[C@H](CC(C)C)N(C)C(=O)C[C@@H](C(=O)N2CCCCC2)N(C)C(=O)[C@H](C2CCCCC2)N(C)C(=O)C2(CCCC2)NC(=O)[C@H]([C@@H](C)O)N(C)C(=O)[C@H](CCc2ccc(C(F)(F)F)c(Cl)c2)NC(=O)CN(C)C(=O)[C@H](CC2CCCCC2)N(C)C(=O)CN(C)C(=O)CN(C)C1=O [Compound 118] ([NMeL]I[Sar][Sar][NMeCha][Sar][hPhe(3-Cl-4-CF3)][NMeT][Ac5c][NMeChg][NMeD]-Piperidide; lactam N-11)

>  <IC50 [nM]>
1.9

$$$$
>  <compound>
CC[C@H](C)[C@@H]1NC(=O)[C@H](CC(C)C)N(C)C(=O)C[C@@H](C)N(C)C(=O)[C@H]([C@@H](C)CC)N(C)C(=O)C2(CCC2)NC(=O)[C@@H]2CC(F)(F)CN2C(=O)[C@H](CCc2cc(F)c(C(F)(F)F)c(F)c2)NC(=O)CN(C)C(=O)[C@H](Cc2ccc(C(F)(F)F)cc2)N(CC)C(=O)[C@@H]2CCN2C(=O)[C@H](C)N(C)C1=O [Compound 85] (cyclo([Ac4c][NMeI][NMedβ3hAla][NMeL]I[NMeA][Aze][NEtPhe(4-CF3)][Sar][hPhe(3,5-F2-4-CF3)][Pro(4,4-F2)]))

>  <IC50 [nM]>
15

$$$$
>  <compound>
CCCCN1CC(=O)N(C)CC(=O)N(C)[C@@H](COCCC(C)C)C(=O)N(C)CC(=O)N[C@@H](CCc2ccc(C(F)(F)F)c(Cl)c2)C(=O)N[C@@H](COCC(C)(C)O)C(=O)NC(C)(C)C(=O)N(C)[C@@H](CC(C)C)C(=O)N[C@H](C)CC(=O)N(C)[C@@H](CC(C)C)C(=O)N[C@@H]([C@@H](C)CC)C1=O [Compound 1473] (cyclo([Aib][NMeL][d(β3hA)][NMeL]I[NBuGly][Sar][NMeS](Isopentyl)[Sar][hPhe(3-Cl-4-CF3)]S(CH2CMe2OH)))

>  <IC50 [nM]>
390

$$$$
>  <compound>
CC[C@H](C)[C@@H]1NC(=O)[C@H](C)N(C)C(=O)C[C@@H](C)NC(=O)[C@H](CC(C)C)N(C)C(=O)C(C)(C)NC(=O)[C@H](CC(C)C)N(C)C(=O)[C@H](CCc2ccc(C(F)(F)F)cc2)NC(=O)CN(C)C(=O)[C@H](Cc2ccc(Cl)cc2)N(C)C(=O)CN(C)C(=O)CN(C)C1=O [Compound 788] (cyclo([Aib][NMeL][d(β3hA)][NMeA]I[Sar][Sar][NMePhe(4-Cl)][Sar][hPhe(4-CF3)][NMeL]))

>  <IC50 [nM]>
13

$$$$

Tell us which IC50 value is on record for CC[C@H](C)[C@@H]1NC(=O)[C@H](CC(C)C)N(C)C(=O)C[C@@H](C(=O)N(C)C)N(C)C(=O)[C@H]([C@@H](C)CC)N(C)C(=O)C2(CCCC2)NC(=O)[C@@H]2CCCN2C(=O)[C@H](CCc2ccc(C(F)(F)F)c(Cl)c2)NC(=O)CN(CC)C(=O)[C@H](Cc2ccc(C)cc2)N(C)C(=O)[C@@H]2CCN2C(=O)[C@H](C)N(C)C1=O [Compound 1120] ([NMeL]I[NMeA][Aze][NMePhe(4-Me)][NEtG][hPhe(3-Cl-4-CF3)]P[Ac5c][NMeI][NMeD]-NMe2; lactam N-11)
2.5
